- Test system: F380Y/beta4
- assay-name: modulators of BK channel variants, profiling panel, selectivity assay, cell-based, U2OS BacMam, thallium flux, beta subunits (AID 1259406);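 note: initial slope of Thallos dye fluorescence rise after thallium is added; log ratio against the mean of 0.3% DMSO vehicle wells on the same plate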
- study-conditions: at 30 µM
Calls of active or inactive are those of the source.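 Rule for the calls: active = thallium flux through the channel raised or lowered by more than 3 SD from vehicle-only wells, actives on both sides; inactive = the rest.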
Pick one: active, inactive

Some solved cases for reference:
CCC(=O)OCC(=O)[C@@]1(OC(=O)CC)[C@@H](C)C[C@H]2[C@@H]3CCC4=CC(=O)C=C[C@]4(C)[C@@]3(Cl)[C@@H](O)C[C@@]21C
active
CC(=O)O[C@]1(C(C)=O)CC[C@H]2[C@@H]3C[C@H](C)C4=CC(=O)CC[C@]4(C)[C@H]3CC[C@@]21C
inactive
COC(=O)[C@H](c1ccccc1Cl)N1CCc2sccc2C1
inactive

-- ask Look up the recorded call for CN/C(=C\[N+](=O)[O-])NCCSCc1ccc(CN(C)C)o1 in this test.
-- reply inactive

====

- measured-target: Mitogen-activated protein kinase 7 (Homo sapiens)
- assay-name: ERK5 transactivation activators in reporter cells, primary screen, cell-based, HTS (AID 1508626);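 note: luciferase driven by Gal4-ERK5 fusion binding five Gal4 sites before minimal TATA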
- study-conditions: HeLa Gal4-ERK5 transactivation, 18 h, at 5 µM, active compounds read high
Activity calls are given as the source filed them.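 How the source made its calls: active means luciferase signal above three times the same-plate solvent-only control wells; inactive means the rest.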
quantity-measured: luciferase signal

Use these answered entries as a reference point.
CCCN(CCC)CCc1cccc2c1CC(=O)N2
48 AU (inactive)
C1CCN2C[C@@H]3C[C@H](CN4CCCC[C@@H]34)[C@H]2C1
68 AU (inactive)
COC(=O)C(O)c1ccccc1 (centres undefined)
28 AU (inactive)

-- ask Requested read-out: luciferase signal. Entry: CCOc1ccc2c(c1)C(C)=CC(C)(C)N2
-- reply 48 AU (inactive)

-- ask luciferase signal for CC(=O)Oc1cc(-c2coc3cc(OC(C)=O)c(OC(C)=O)c(OC(C)=O)c3c2=O)cc(OC(C)=O)c1OC(C)=O ?
-- reply 36 AU (inactive)

-- ask Look up luciferase signal: COc1cc(-c2coc3cc(O[C@@H]4O[C@H](CO)[C@@H](O)[C@H](O)[C@H]4O)c(OC)c(O)c3c2=O)cc(O)c1OC
-- reply 68 AU (inactive)

-- ask Look up luciferase signal: CC(=O)O[C@@H]1CC(=O)[C@@]2(C)C(CC(=O)[C@]3(C)C2CC[C@@]2(C)[C@H](c4ccoc4)OC(=O)C4OC423)C1(C)C (some centres undefined)
-- reply 24 AU (inactive)

-- ask Query (compound): O=C(O)CCc1nc(-c2ccccc2)c(-c2ccccc2)o1 ; field requested: luciferase signal
-- reply 44 AU (inactive)

-- ask Can you share its luciferase signal? I mean this compound: O=C(Oc1cc(O)cc2c1C[C@@H](OC(=O)c1cc(O)c(O)c(O)c1)[C@@H](c1cc(O)c(O)c(O)c1)O2)c1cc(O)c(O)c(O)c1
-- reply 44 AU (inactive)

-- ask // query luciferase signal value for entry O=c1c2ccccc2oc2ccccc12
-- reply 64 AU (inactive)

-- ask Form field: reported luciferase signal of CCCC1O[C@@H]2C[C@H]3[C@@H]4CCC5=CC(=O)C=C[C@]5(C)[C@H]4[C@@H](O)C[C@]3(C)[C@]2(C(=O)CO)O1 (some centres undefined)
-- reply 96 AU (inactive)

-- ask State the recorded luciferase signal for this entry: O=c1ccc2ccc(O)c(O)c2o1
-- reply 64 AU (inactive)

-- ask Give the measured luciferase signal of COc1c(O)cc(O)cc1O .
-- reply 40 AU (inactive)
